- System: MS2 coat protein
- protocol text: apparent KD of MS2 coat protein; designed switch direction (-1 OFF switch, 1 ON switch): -1; higher = weaker reporter binding
- run conditions: Eterna round: R95; input ligand: microRNA oligo, concentration not stated
Please mark true if the recorded apparent KD of MS2 coat protein is equal to or greater than 20 nM, and false if it falls below.

Please check the record AACAAACAUGAGGAUCACCCAUGUGAGGAUAUGCAACAAAACAAAACAAAACAAAACAGCAGAAGGCACACAAC [A-G Solution By Eric] (puzzle: Exclusion 1) and state if its apparent KD of MS2 coat protein is at or above 20 nM.
false

Decide: is the reported value of apparent KD of MS2 coat protein for GCCUGUGAAGGAUAUACAUGAGGAUCACCCAUGUGGCGGAUAUACCCGCCGAGACCGUGUAGAAGGUCAUAGUA [Xezauser] (puzzle: Exclusion 3) equal to or greater than 20 nM?
true

Identify whether the reported apparent KD of MS2 coat protein of the following sequence is 20 nM or greater: AUAUUAACAUAGGAUAUCGAAUAAAUUAUUUAACGAGAAGGAUGAACAUGAGGAUCACCCAUGUGGUAUCAUGG [Mat - Exclusion 6 - JL Mod - D29] (puzzle: Exclusion 6)
true

Assess whether reported apparent KD of MS2 coat protein for AGACAGUCAGGAUAUACAUGAGGAUCACCCAUGUUGAGAUGAGAAAGGGCAGGAAGAGGUAGAAGGGACAAGAG [JR_Exclu3_Sub036] (puzzle: Exclusion 3) sits at 20 nM or higher.
true

Reported apparent KD of MS2 coat protein at or above 20 nM? UUUUAACAUGAGGAUCACCCAUGUGAGGAUAUCGAAAUUUAUAUUAAUAUUAUUUAAUCGAGAAGGCACAUUUU [JMF 44] (puzzle: Exclusion 1)
true

Threshold query (apparent KD of MS2 coat protein >= 20 nM) on GUAUAUAGUGUGAGGAUAUGCUGGUCCUUGGAUCAGCAGAAGGCACAUGAGGAUCACCCAUGUAGUUUAUUAUU [Mat - Exclusion 4 - JL Mod - D9] (puzzle: Brourd's mod of Exclusion 4)
true

Check this sequence for apparent KD of MS2 coat protein at or above 20 nM: UUUAAUUUUUUUUUUUUACAAGCUUUUUGCUCGUCUUAUACAUGAGGAUCACCCAUGUAGGUGAGAGAUAAAUUAUC [JMF 15] (puzzle: Sensor v3, turn-off variant 2)
true

Reported apparent KD of MS2 coat protein at or above 20 nM? ACCUUAAAAGUGAGGAUAUCUAGGGCCAAAUGGCCGGAGAAGGCACAUGAGGAUCACCCAUGUAACGCCAUGGA [Beinat] (puzzle: Brourd's mod of Exclusion 4)
false
